# reported Percent Effect; entries follow
Test system: Wolbachia pipientis
TEST_DESCRIPTION: Anti-Wolbachia Cell-Based Screen
Type: functional
Set-up: scale not given: in the data most compounds retested in dose-response had high values
SETUP_CONDITIONS: 5 µM
Among all 48,000 compounds or so, about 13,000 (27%) showed an effect of 50% or more. Some of the results follow.
Use % as the unit, but write only the number.

Some entries whose results are on file:
* CC(=O)NCCNC(=O)C1(Oc2cccnc2C)CCNCC1 | -9.586
* O=C(NCC1CCN(C(=O)c2ccoc2)CC1)c1ccccc1Br | -10.47
* O=C(NC[C@H]1OC[C@@H]2CCN(C(=O)c3ccco3)C[C@@H]21)C1CC1 | -4.179
* Cc1nc2c(c(N3CCC(CCn4cccn4)CC3)n1)CCNCC2 | 1.957
* CCn1cnnc1C1CCN(C(=O)c2cnn(C(C)(C)C)c2)CC1 | 107
* CC(C)c1cc(C(=O)N(C)Cc2cccc3ncccc23)n(C)n1 | -7.2

Entry COCCN(Cc1cccc(OCCO)c1)Cc1ccccc1F — recorded Percent Effect = 0.9238

Entry CN(Cc1csc(-c2cccs2)n1)Cc1cccnc1N — recorded Percent Effect = 16.69

Entry CCCc1cc(C(=O)N(C)Cc2cccc3ncccc23)n(C)n1 — recorded Percent Effect = 20.91

Entry C1CCC(N2CCCN(c3nc(C4CC4)no3)CC2)C1 — recorded Percent Effect = 19.76

Entry Cc1ccccc1C(=O)N1CCC2(CCC(C(=O)NCC3CC3)O2)CC1 (centres undefined) — recorded Percent Effect = 104

Entry O=C(NCc1cc2ccccc2s1)c1cc(CN2CCCC(O)C2)on1 (centres undefined) — recorded Percent Effect = 4.701

Entry CN(Cc1cccc(CCN)c1)Cc1cccc2ncccc12 — recorded Percent Effect = 97.29

Entry O=C(NC1CCC1)C1CCC2(CN(C(=O)c3ccco3)C2)O1 (centres undefined) — recorded Percent Effect = -15.31

Entry O=C(NCC1CC1)C1CCC2(CCN(C(=O)c3ccoc3)CC2)O1 (centres undefined) — recorded Percent Effect = 90.09

Entry CCn1cnnc1C1CCN(C(=O)c2ccc(C(=O)OC)s2)CC1 — recorded Percent Effect = -1.592

Entry CN(Cc1cccc2ncccc12)C(=O)CCC(F)(F)F — recorded Percent Effect = -3.963

Entry CCCN(Cc1cccc(OCCO)c1)Cc1ccccc1OC — recorded Percent Effect = 8.157

Entry COc1cccc(C(=O)NCC2CCN(C(=O)c3ccoc3)CC2)c1 — recorded Percent Effect = -1.127

Entry CN(Cc1cccc(OCCO)c1)Cc1cccc2ncccc12 — recorded Percent Effect = 95.97

Entry CCC(C)(CNC(=O)Nc1nncs1)N1CCOCC1 (centres undefined) — recorded Percent Effect = -7.544

Entry O=C(NCC1CC1)C1CN(C(=O)c2cccs2)CC12CCOCC2 (centres undefined) — recorded Percent Effect = -5.71

Entry CN(Cc1cccnc1N)Cc1cccc2ncccc12 — recorded Percent Effect = 108.3

Entry O=C(NCC1CC1)C1CCC2(CCN(C(=O)c3ccco3)CC2)O1 (centres undefined) — recorded Percent Effect = 87.87
